molecular target: HLA-B*44:02; experiment: IEDB peptide-MHC binding, purified MHC/competitive/radioactivity; filed as Kd, often an IC50 or EC50 that approximates it; bounds were set here for any values at or beyond the usual limits of such assays; conditions: source organism: SARS coronavirus Tor2
ASSAY READOUT: Kd (nM)
# number only, unit nM dropped from output

Completed entries (count: 3):
IEELFYSYA | 1770
TEVVGNVIL | 15200
QECNNMHLST | 5610

Input line: Note Kd for the sequence shown: "ADVFHLYLQY"
Output line: 2420

Input line: Note Kd for the sequence shown: "FEHIVYGDF"
Output line: 1870

Input line: Note Kd for the sequence shown: "AEIVDTVSA"
Output line: 1930

Input line: Note Kd for the sequence shown: "HEFVDEFYAY"
Output line: 3500

Input line: Note Kd for the sequence shown: "CEKALKYLPI"
Output line: 127

Input line: Note Kd for the sequence shown: "GENAVIPKG"
Output line: 2030

Input line: Note Kd for the sequence shown: "AEVEWKFYDA"
Output line: 79

----------
biological target: HLA-A*02:19; assay: IEDB peptide-MHC binding, purified MHC/competitive/fluorescence; filed as Kd, often an IC50 or EC50 that approximates it; bounds were set here for any values at or beyond the usual limits of such assays; settings: source organism: Shigella boydii CDC 3083-94
ASSAY READOUT: Kd (pM)
# number only, unit pM dropped from output

Input line: Note Kd for the sequence shown: "GMMRWCMPV"
Output line: 200

----------
biological target: HLA-A*26:03; assay: IEDB peptide-MHC binding, purified MHC/direct/fluorescence; filed as Kd, often an IC50 or EC50 that approximates it; bounds were set here for any values at or beyond the usual limits of such assays; details: source organism: Francisella tularensis subsp. tularensis FSC033
pKd: −log10 of the molar value.
ASSAY READOUT: pKd

Input line: Note pKd for the sequence shown: "EFKQILTDF"
Output line: ≤ 4.70

----------
target: HLA-A*23:01; experiment: IEDB peptide-MHC binding, purified MHC/competitive/fluorescence; filed as Kd, often an IC50 or EC50 that approximates it; bounds were set here for any values at or beyond the usual limits of such assays; conditions: source organism: Rickettsia akari str. Hartford
ASSAY READOUT: Kd

Input line: Recall the reported Kd of "FTARIIIFS" on HLA-A*23:01 and write it down.
Output line: ≥ 20 µM

----------
molecular target: HLA-A*03:01; assay: IEDB peptide-MHC binding, purified MHC/direct/fluorescence; filed as Kd, often an IC50 or EC50 that approximates it; bounds were set here for any values at or beyond the usual limits of such assays; conditions: source organism: Ebola virus Yambio0403
ASSAY READOUT: Kd

Input line: Note Kd for the sequence shown: "RYEFTAPFI"
Output line: ≥ 20 µM

----------
target: HLA-B*44:02; experiment: IEDB peptide-MHC binding, purified MHC/competitive/radioactivity; filed as Kd, often an IC50 or EC50 that approximates it; bounds were set here for any values at or beyond the usual limits of such assays; details: source organism: Dengue virus 1 Brazil/97-11/1997
ASSAY READOUT: Kd
Returns: string containing the number followed by the unit.

Input line: Note Kd for the sequence shown: "LENIMWKQI"
Output line: 0.115 µM

----------
biological target: HLA-A*31:01; test: IEDB peptide-MHC binding, purified MHC/competitive/radioactivity; filed as Kd, often an IC50 or EC50 that approximates it; bounds were set here for any values at or beyond the usual limits of such assays; settings: source organism: Vaccinia virus WR
# pKd listing for each entry below
pKd field: float, defined as -log10 of concentration (mol/L).

KFGNSINVK | 6.21
FALKKLIIDR | 5.97
WIQYDKHCY | 5.25
SMLTNAISSR | 6.93
SMGFKVTTRR | 7.66

Input line: Recall the reported pKd of "KQYDSTDFK" on HLA-A*31:01 and write it down.
Output line: 7.15

Input line: Recall the reported pKd of "NVTSMEELAR" on HLA-A*31:01 and write it down.
Output line: 6.15
